Tested on: isolated ileum of an experimental animal
Assay: Anaphylactic contraction of isolated ileum induced by antigen (ovoalbumin)
Conditions: antigen (10 μg/ml), average ±SEM, at least 3 animals; read-out: Stimulation with antigen IC50
IC50 overview
Numbers only here, please. The scale is µM.

Worked cases, IC50 given:
CCN(CC)CC(=O)Nc1ccc(C)cc1C [JM24-1, 2-dyethylamine-2′,4′-acetoxylidide]	190
CCN(CC)CC(=O)Nc1c(C)cccc1C [Lidocaine, reference compound]	1430
CCN(CC)CC(=O)Nc1cc(C)ccc1C [JM25-1, 2-dyethylamine-2′,5′-acetoxylidide]	120

Request: What IC50 value was documented for this compound, CCN(CC)CC(=O)Nc1cccc(C)c1C [JM23-1, 2-dyethylamine-2′,3′-acetoxylidide] ?
Result: 330
